Target: full length mouse TREX1 (Mus musculus, UniProt Q91XB0)
Construct: N-terminally His-Tev tagged full length mouse TREX1; made in house; host or cells: E. coli
Sequence (Q91XB0 1-314): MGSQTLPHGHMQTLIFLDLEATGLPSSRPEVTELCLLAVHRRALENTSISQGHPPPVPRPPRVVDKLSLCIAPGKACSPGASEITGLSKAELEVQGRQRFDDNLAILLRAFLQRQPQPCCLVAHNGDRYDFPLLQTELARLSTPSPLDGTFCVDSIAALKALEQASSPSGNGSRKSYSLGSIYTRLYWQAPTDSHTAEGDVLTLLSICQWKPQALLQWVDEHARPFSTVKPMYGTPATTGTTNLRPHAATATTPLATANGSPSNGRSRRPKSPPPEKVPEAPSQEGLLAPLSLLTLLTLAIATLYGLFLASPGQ
Assay: mTREX1 Biochemical Assay (fluorescence, dsDNA substrate degradation)
Conditions: biochemical, read-out: mTREX1 IC50
property name: IC50

Some compounds with known IC50 results, for comparison:
Lookup: Return IC50 measured with full length mouse TREX1 (Mus musculus, UniProt Q91XB0) given this compound: Cc1ncc(C(c2cc(F)ccc2C#N)C(C)c2nc(C(=O)Nc3cnoc3)c(O)c(=O)n2C)nc1C (single isomer, unassigned) [Example 124 D2E1]
Found: > 10 nM

Lookup: Return IC50 measured with full length mouse TREX1 (Mus musculus, UniProt Q91XB0) given this compound: Cc1nn(C)c(C)c1C(c1ccccc1C#N)C(C)c1nc(C(=O)Nc2cnoc2)c(O)c(=O)n1C (single isomer, unassigned) [Example 78 D2E1]
Found: > 10 nM

Lookup: Return IC50 measured with full length mouse TREX1 (Mus musculus, UniProt Q91XB0) given this compound: Cc1nn(C)cc1C(c1cc(F)ccc1C#N)C(c1nc(C(=O)Nc2cnoc2)c(O)c(=O)n1C)C(F)(F)F (single isomer, unassigned) [Example 42 D1E2]
Found: 1 to 10 nM

Lookup: Return IC50 measured with full length mouse TREX1 (Mus musculus, UniProt Q91XB0) given this compound: CC(c1nc(C(=O)Nc2cnoc2)c(O)c(=O)n1C)C(c1cnn(CCOC(F)(F)F)c1)c1cc(F)ccc1Cl (single isomer, unassigned) [Example 98 D1E1]
Found: 1 to 10 nM

Lookup: Return IC50 measured with full length mouse TREX1 (Mus musculus, UniProt Q91XB0) given this compound: CC(c1nc(C(=O)Nc2cnoc2)c(O)c(=O)n1C)C(c1nnn(C)n1)c1ccccc1C#N (single isomer, unassigned) [Example 79 D2E2]
Found: > 10 nM

Lookup: Return IC50 measured with full length mouse TREX1 (Mus musculus, UniProt Q91XB0) given this compound: CCn1cc(C(c2ccc(F)cc2C#N)C(C)c2nc(C(=O)Nc3cnoc3)c(O)c(=O)n2C)cn1 (single isomer, unassigned) [Example 16 D2E2]
Found: > 10 nM

Lookup: Return IC50 measured with full length mouse TREX1 (Mus musculus, UniProt Q91XB0) given this compound: COCCn1ncc(C(c2ccccc2C#N)C(C)c2nc(C(=O)Nc3cnoc3)c(O)c(=O)n2C)c1C (single isomer, unassigned) [Example 69 D1E1]
Found: 1 to 10 nM

Kindly consider the entry below.
Lookup: Return IC50 measured with full length mouse TREX1 (Mus musculus, UniProt Q91XB0) given this compound: CC(c1nc(C(=O)Nc2cnoc2)c(O)c(=O)n1C)C(c1cnn(C)c1)c1cc(Cl)ccc1C#N (single isomer, unassigned) [Example 26 D1E1]
Found: > 10 nM

* * *

Target: full length mouse TREX1 (Mus musculus, UniProt Q91XB0)
Construct: N-terminally His-Tev tagged full length mouse TREX1; made in house; host or cells: E. coli
Sequence (Q91XB0 1-314): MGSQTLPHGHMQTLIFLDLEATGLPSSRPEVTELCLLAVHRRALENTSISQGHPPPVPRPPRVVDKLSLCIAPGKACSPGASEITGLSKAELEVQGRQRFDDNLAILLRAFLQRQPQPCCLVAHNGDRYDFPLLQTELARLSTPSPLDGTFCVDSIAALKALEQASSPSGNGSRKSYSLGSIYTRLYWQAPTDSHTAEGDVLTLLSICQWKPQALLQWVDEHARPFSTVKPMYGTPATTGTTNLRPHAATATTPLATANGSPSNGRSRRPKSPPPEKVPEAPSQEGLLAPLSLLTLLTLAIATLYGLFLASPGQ
Experiment: mTREX1 Biochemical Assay (fluorescence, dsDNA substrate degradation)
Conditions: biochemical, read-out: mTREX1 IC50
pIC50: −log10 of the molar value.
Measured pIC50, listed per entry for reference.

Lookup: Entry under review: CC(c1nc(C(=O)Nc2cnoc2)c(O)c(=O)n1C)C(c1ccccc1C#N)c1cn(C)nc1F (single isomer, unassigned) [Example 91 D1E1] . Reported pIC50?
Found: > 9.00

Lookup: Entry under review: Cc1nn(C)cc1C(c1cc(F)ccc1Cl)C(C)c1nc(C(=O)Nc2cnoc2)c(O)c(=O)n1C (single isomer, unassigned) [Example 62 D2E1] . Reported pIC50?
Found: < 8.00

Lookup: Entry under review: Cc1cc(C(c2ccccc2C#N)C(C)c2nc(C(=O)Nc3cnoc3)c(O)c(=O)n2C)ccn1 (single isomer, unassigned) [Example 6 D2E1] . Reported pIC50?
Found: < 8.00

Lookup: Entry under review: Cn1cc(C(c2ccccc2C#N)C(c2nc(C(=O)Nc3cnoc3)c(O)c(=O)n2C)C(F)(F)F)cn1 (single isomer, unassigned) [Example 40 D1E2] . Reported pIC50?
Found: 8.00 to 9.00

Lookup: Entry under review: CC(c1nc(C(=O)Nc2cnoc2)c(O)c(=O)n1C)C(c1ccccc1C#N)c1nnnn1C (single isomer, unassigned) [Example 131 D2E1] . Reported pIC50?
Found: < 8.00

Lookup: Entry under review: CC(c1nc(C(=O)Nc2cnoc2)c(O)c(=O)n1C)C(c1cnn(C)c1)c1ccc(C(F)(F)F)cc1C#N (single isomer, unassigned) [Example 30 D2E1] . Reported pIC50?
Found: < 8.00

Lookup: Entry under review: CC(c1nc(C(=O)Nc2cnoc2)c(O)c(=O)n1C)C(c1cnn(CCN2CCNCC2)c1)c1ccccc1C#N (single isomer, unassigned) [Example 31 D1E1] . Reported pIC50?
Found: 8.00 to 9.00

Lookup: Entry under review: CC(c1nc(C(=O)Nc2cnoc2)c(O)c(=O)n1C)C(c1ccccc1C#N)c1ccnn1C (single isomer, unassigned) [Example 1 D1E1] . Reported pIC50?
Found: 8.00 to 9.00

Lookup: Entry under review: CC(c1nc(C(=O)Nc2cnoc2)c(O)c(=O)n1C)C(c1cnc(C(F)(F)F)cn1)c1ccccc1C#N (single isomer, unassigned) [Example 118 D1E1] . Reported pIC50?
Found: 8.00 to 9.00

Lookup: Entry under review: Cc1cnc(C(c2cc(F)ccc2Cl)C(C)c2nc(C(=O)Nc3cnoc3)c(O)c(=O)n2C)cn1 (single isomer, unassigned) [Example 117 D2E2] . Reported pIC50?
Found: < 8.00

Lookup: Entry under review: CCn1cc(C(c2cc(F)c(F)cc2Cl)C(C)c2nc(C(=O)Nc3cnoc3)c(O)c(=O)n2C)cn1 (single isomer, unassigned) [Example 72 D2E1] . Reported pIC50?
Found: < 8.00

Lookup: Entry under review: CC(c1nc(C(=O)Nc2cnoc2)c(O)c(=O)n1C)C(c1ncn(C)n1)c1ccccc1C#N (single isomer, unassigned) [Example 51 D1E2] . Reported pIC50?
Found: < 8.00

Lookup: Entry under review: CC(c1nc(C(=O)Nc2cnoc2)c(O)c(=O)n1C)C(c1cnn(CC2COC2)c1)c1ccccc1Cl (single isomer, unassigned) [Example 88 D2E1] . Reported pIC50?
Found: < 8.00

* * *

Biological target: full length mouse TREX1 (Mus musculus)
Construct: N-terminally His-Tev tagged full length mouse TREX1; made in house; host or cells: E. coli
Sequence (Q91XB0 1-314): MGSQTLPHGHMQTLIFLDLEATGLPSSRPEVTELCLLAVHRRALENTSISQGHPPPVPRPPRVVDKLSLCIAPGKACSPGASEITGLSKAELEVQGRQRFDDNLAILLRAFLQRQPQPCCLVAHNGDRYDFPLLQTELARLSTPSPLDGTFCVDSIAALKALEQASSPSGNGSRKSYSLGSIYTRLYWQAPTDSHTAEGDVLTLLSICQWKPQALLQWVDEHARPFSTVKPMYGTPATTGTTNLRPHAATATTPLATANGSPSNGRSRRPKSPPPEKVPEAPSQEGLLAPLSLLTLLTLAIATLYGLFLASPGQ
Test: mTREX1 Biochemical Assay (fluorescence, dsDNA substrate degradation)
Details: biochemical, read-out: mTREX1 IC50
pIC50: −log10 of the molar value.
property name: pIC50

Some molecules with known pIC50 results, for comparison:
Lookup: Entry under review: CC(c1nc(C(=O)Nc2cnoc2)c(O)c(=O)n1C)C(c1cnn(C)c1)c1ccccc1Cl (single isomer, unassigned) [Example 77 D1E1] . Reported pIC50?
Found: 8.00 to 9.00

Lookup: Entry under review: Cc1c(C(c2ccccc2C#N)C(C)c2nc(C(=O)Nc3cnoc3)c(O)c(=O)n2C)cnn1C (single isomer, unassigned) [Example 4 D2E2] . Reported pIC50?
Found: < 8.00

Lookup: Entry under review: Cc1cnc(C)c(C(c2ccccc2Cl)C(C)c2nc(C(=O)Nc3cnoc3)c(O)c(=O)n2C)n1 (single isomer, unassigned) [Example 120 D2E1] . Reported pIC50?
Found: < 8.00

Lookup: Entry under review: CC(c1nc(C(=O)Nc2cnoc2)c(O)c(=O)n1C)C(c1ccccc1Cl)n1cccn1 (single isomer, unassigned) [Example 45 D1E2] . Reported pIC50?
Found: < 8.00

Lookup: Entry under review: Cc1cnc(C(c2ccccc2Cl)C(C)c2nc(C(=O)Nc3cnoc3)c(O)c(=O)n2C)cn1 (single isomer, unassigned) [Example 116 D1E2] . Reported pIC50?
Found: 8.00 to 9.00

Kindly consider the entry below.
Lookup: Entry under review: CC(c1nc(C(=O)Nc2cnoc2)c(O)c(=O)n1C)C(c1cnn(CCO)c1)c1ccccc1C#N (single isomer, unassigned) [Example 35 D1E1] . Reported pIC50?
Found: 8.00 to 9.00
